Data origin: paper PMC10819888

Parameter inhibition at 10 µM: see the listing below.
- System: SW-620
- methodSummary: NCI-60 one-dose assay
- Type: cell-based
- experimentalParameters: Homo sapiens, SW-620 (Colon Cancer), read-out: Cell Inhibition Percent
- From the text: The final compounds were submitted to the National Cancer Institute, Bethesda, USA, for screening in vitro for anti-cancer. […] compounds, 4a–j, 5, and 6, were selected according to the Development Therapeutic Program (DTP) protocol. […]
measureName: inhibition at 10 µM (%)

compound: COc1cc(/C=N/NC(=O)c2ccc3[nH]c(-c4ccc(Cl)cc4)nc3c2)cc(OC)c1OC [Compound 4h]
measureName: inhibition at 10 µM
observedMeasurement: 21.3

compound: O=C(NN=Cc1ccccc1)c1ccc2[nH]c(-c3ccc(Cl)cc3)nc2c1 [Compound 4a]
measureName: inhibition at 10 µM
observedMeasurement: 0

compound: O=C(NN=Cc1ccc(Cl)cc1)c1ccc2[nH]c(-c3ccc(Cl)cc3)nc2c1 [Compound 4e]
measureName: inhibition at 10 µM
observedMeasurement: 128

compound: COc1ccc(C=NNC(=O)c2ccc3[nH]c(-c4ccc(Cl)cc4)nc3c2)cc1 [Compound 4g]
measureName: inhibition at 10 µM
observedMeasurement: 75.6

compound: O=C(NN=Cc1ccc([N+](=O)[O-])cc1)c1ccc2[nH]c(-c3ccc(Cl)cc3)nc2c1 [Compound 4c]
measureName: inhibition at 10 µM
observedMeasurement: 87.3

compound: O=C(NN=Cc1ccc(F)cc1)c1ccc2[nH]c(-c3ccc(Cl)cc3)nc2c1 [Compound 4d]
measureName: inhibition at 10 µM
observedMeasurement: 53.7

compound: CCn1c(-c2ccc3[nH]c(-c4ccc(Cl)cc4)nc3c2)n[nH]c1=S [Compound 6]
measureName: inhibition at 10 µM
observedMeasurement: 0

compound: CN(C)c1ccc(C=NNC(=O)c2ccc3[nH]c(-c4ccc(Cl)cc4)nc3c2)cc1 [Compound 4b]
measureName: inhibition at 10 µM
observedMeasurement: 0
